biological target: CDK6/cycD3 (Homo sapiens); assay: CDK6 kinase activity inhibition, Caliper mobility shift assay
Sequence (Q00534 whole entry, species assumed): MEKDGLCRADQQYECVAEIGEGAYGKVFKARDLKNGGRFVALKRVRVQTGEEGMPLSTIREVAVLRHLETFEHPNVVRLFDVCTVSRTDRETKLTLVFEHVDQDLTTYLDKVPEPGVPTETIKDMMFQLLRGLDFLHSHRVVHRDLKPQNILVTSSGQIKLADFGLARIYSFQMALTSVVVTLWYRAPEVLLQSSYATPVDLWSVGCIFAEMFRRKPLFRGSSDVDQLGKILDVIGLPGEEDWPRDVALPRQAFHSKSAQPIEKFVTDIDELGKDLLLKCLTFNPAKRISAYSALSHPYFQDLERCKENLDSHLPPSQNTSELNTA
Sequence (P30281 whole entry partner, species assumed): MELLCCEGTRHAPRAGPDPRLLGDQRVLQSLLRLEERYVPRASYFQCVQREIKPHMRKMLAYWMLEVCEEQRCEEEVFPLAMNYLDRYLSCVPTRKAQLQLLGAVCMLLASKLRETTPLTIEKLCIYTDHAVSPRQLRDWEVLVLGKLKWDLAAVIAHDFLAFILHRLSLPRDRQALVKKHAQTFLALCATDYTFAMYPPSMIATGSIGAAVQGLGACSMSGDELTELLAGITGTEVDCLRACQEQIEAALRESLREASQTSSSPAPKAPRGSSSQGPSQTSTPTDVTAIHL
Measured Metric: IC50

The cases that follow already have their IC50 on record.
Cc1nc2c(F)cc(-c3nc(Nc4ccc5c(c4)OC[C@@H]4CN(C)CCN54)ncc3F)cc2n1C(C)C :: < 50 nM
Cc1nc2c(F)cc(-c3nc(Nc4ccc5c(c4)OC[C@H]4CN(C6CCN(C)CC6)CCN54)ncc3F)cc2n1C(C)C :: < 10 nM
Cc1nc2c(F)cc(-c3nc(Nc4ccc5c(c4)OC[C@H]4CN(C6CCOCC6)CCN54)ncc3F)cc2n1C(C)C :: < 50 nM

Continue with the molecule presented below.
Look up IC50 for this molecule: Cc1nc2c(F)cc(-c3nc(Nc4ccc5c(c4)OC[C@H]4CN(C)CCN54)ncc3F)cc2n1C(C)C
< 50 nM

* * *

Reported values of IC50 for individual entries
target: SYK (Homo sapiens, UniProt P43405); experiment: Syk kinase activity inhibition, Caliper mobility shift assay; format: biochemical

NC(=O)c1cnc(Nc2ccc3c(c2)OC[C@H]2CN(S(=O)(=O)C4CCOCC4)CCN32)nc1NC1CC1 [Compound C13R] :: < 10 nM

Entry NC(=O)c1cnc(Nc2ccc3c(c2)OCC2COCCN32)nc1NC1CC1 (stereo not shown) [Compound C18R] , system SYK (Homo sapiens, UniProt P43405): what IC50 was measured?
< 50 nM

Look up IC50 with SYK (Homo sapiens, UniProt P43405) for this compound: CN(C)S(=O)(=O)N1CCN2c3ccc(Nc4ncc(C(N)=O)c(NC5CC5)n4)cc3OC[C@H]2C1 [Compound C14R]
< 10 nM

Query the reported IC50 for SYK (Homo sapiens, UniProt P43405); item: CCS(=O)(=O)N1CCN2c3ccc(Nc4ncc(C(N)=O)c(NC5CC5)n4)cc3OC[C@H]2C1
< 10 nM

Missing value: IC50, SYK (Homo sapiens, UniProt P43405), entry CS(=O)(=O)N1CCN2c3ccc(Nc4ncc(C(N)=O)c(NC5CC5)n4)cc3OC[C@H]2C1 [Compound C11R] . Fill in?
< 10 nM

Request: IC50, test system SYK (Homo sapiens, UniProt P43405), entry CN1CCC(N2CCN3c4ccc(Nc5ncc(C(N)=O)c(NC6CC6)n5)cc4OC[C@H]3C2)CC1
< 50 nM

I'm curious: which IC50 was measured for NC(=O)c1cnc(Nc2ccc3c(c2)OC[C@H]2CN(S(N)(=O)=O)CCN32)nc1NC1CC1 [Compound C16R] tested on SYK (Homo sapiens, UniProt P43405)?
< 50 nM

// lookup IC50 | system=SYK (Homo sapiens, UniProt P43405) | key= NC(=O)c1cnc(Nc2ccc3c(c2)OC[C@H]2CN(C4CCOCC4)CCN32)nc1NC1CC1
< 50 nM

Recorded IC50 for CC(=O)N1CCN2c3ccc(Nc4ncc(C(N)=O)c(NC5CC5)n4)cc3OC[C@H]2C1 with SYK (Homo sapiens, UniProt P43405), please?
< 50 nM

So what IC50 did NC(=O)c1cnc(Nc2ccc3c(c2)OC[C@H]2CNCCN32)nc1NC1CC1 get with SYK (Homo sapiens, UniProt P43405)?
< 50 nM

Provide value of IC50 for this record tested with SYK (Homo sapiens, UniProt P43405): NC(=O)c1cnc(Nc2ccc3c(c2)OC[C@H]2CN(S(=O)(=O)C4CC4)CCN32)nc1NC1CC1 [Compound C10R]
< 10 nM

Hi! What's the reported IC50 for CC(C)S(=O)(=O)N1CCN2c3ccc(Nc4ncc(C(N)=O)c(NC5CC5)n4)cc3OC[C@H]2C1 [Compound C12R] on SYK (Homo sapiens, UniProt P43405)?
< 10 nM

Observed IC50 on SYK (Homo sapiens, UniProt P43405) for C=CS(=O)(=O)N1CCN2c3ccc(Nc4ncc(C(N)=O)c(NC5CC5)n4)cc3OC[C@H]2C1 [Compound C15R] , please.
< 50 nM
